Test: in vitro
Format: in vitro ADME, rat
Conditions: rat, plasma
Protocol: EDTA-treated rat whole blood was centrifuged at 4°C and 840 × g for 5 min, and then the blood cells were removed ([[…] et al., 2019]). The supernatant was placed in an Eppendorf tube and centrifuged at 4°C and 13,000 rpm for 10 min to remove lipids (white precipitate). […] The peptide concentration was quantified by the UV280 to make a 1 mg/mL stock solution. […] At the indicated time, the peptide was analyzed by HPLC with a C18 column using a linear gradient of 20-65% B over 15 min. […]
Non-standard residues stand in square brackets, D forms with d. Residues, ends and D or L forms follow the SMILES beside them.
Recorded endpoint: remaining at 72 h, 0.6 mg/mL

Given item CC(=O)N[C@@H](Cc1c[nH]c2ccccc12)C(=O)N[C@H](CCCCN)C(=O)N[C@H](CCCCN)C(=O)N[C@H](CC(C)C)C(=O)N[C@H](CCCCN)C(=O)N[C@H](CCCCN)C(=O)N[C@H](CC(C)C)C(=O)N[C@H](CC(C)C)C(=O)N[C@H](CCCCN)C(=O)N[C@H](CCCCN)C(=O)N[C@H](CC(C)C)C(=O)N[C@H](CCCCN)C(=O)N[C@H](CCCCN)C(=O)N[C@H](CC(C)C)C(N)=O [pepdD2, Ac-Wkklkkllkklkkl-NH2] (Ac-W[dK][dK][dL][dK][dK][dL][dL][dK][dK][dL][dK][dK][dL]-NH2) , the value recorded as its remaining at 72 h, 0.6 mg/mL is ~90%

* * *

Experiment: Hemolytic assay
Format: cell-based, rat
Details: rat red blood cells, 256 μg/mL peptide, 37°C 45 min; read-out: Hemolysis (%) at 256 μg/mL
Non-standard residues stand in square brackets, D forms with d. Residues, ends and D or L forms follow the SMILES beside them.
Recorded endpoint: hemolysis at 45 min, 256 μg/mL

The compound identified as CC(=O)N[C@@H](Cc1c[nH]c2ccccc12)C(=O)N[C@H](CCCCN)C(=O)N[C@H](CCCCN)C(=O)N[C@H](CC(C)C)C(=O)N[C@H](CCCCN)C(=O)N[C@H](CCCCN)C(=O)N[C@H](CC(C)C)C(=O)N[C@H](CC(C)C)C(=O)N[C@H](CCCCN)C(=O)N[C@H](CCCCN)C(=O)N[C@H](CC(C)C)C(=O)N[C@H](CCCCN)C(=O)N[C@H](CCCCN)C(=O)N[C@H](CC(C)C)C(N)=O [pepdD2, Ac-Wkklkkllkklkkl-NH2] (Ac-W[dK][dK][dL][dK][dK][dL][dL][dK][dK][dL][dK][dK][dL]-NH2) registered its hemolysis at 45 min, 256 μg/mL at 2.9%

* * *

// reported hemolysis at 45 min, 256 μg/mL for each item listed
Test: Hemolytic assay
Assay type: cell-based, rat
Settings: rat
Residues, ends and D or L forms follow the SMILES beside them. *: point of attachment. Stearoyl = CCCCCCCCCCCCCCCCCC(=O)*; Palmitoyl = CCCCCCCCCCCCCCCC(=O)*; Myristoyl = CCCCCCCCCCCCCC(=O)*; Octanoyl = CCCCCCCC(=O)*; Hexanoyl = CCCCCC(=O)*; Butyryl = CCCC(=O)*
A complete answer gives the number and then names the unit.

Solved cases (3 shown):
CCCCCCCCCCCCCC(=O)N[C@@H](Cc1c[nH]c2ccccc12)C(=O)N[C@@H](CCCCN)C(=O)N[C@@H](CCCCN)C(=O)N[C@@H](CC(C)C)C(=O)N[C@@H](CCCCN)C(=O)N[C@@H](CCCCN)C(=O)N[C@@H](CC(C)C)C(=O)N[C@@H](CC(C)C)C(=O)N[C@@H](CCCCN)C(=O)N[C@@H](CCCCN)C(=O)N[C@@H](CC(C)C)C(=O)N[C@@H](CCCCN)C(=O)N[C@@H](CCCCN)C(=O)N[C@@H](CC(C)C)C(N)=O [pepD2M] (Myristoyl-WKKLKKLLKKLKKL-NH2) = 93.6%
CCCCCC(=O)N[C@@H](Cc1c[nH]c2ccccc12)C(=O)N[C@@H](CCCCN)C(=O)N[C@@H](CCCCN)C(=O)N[C@@H](CC(C)C)C(=O)N[C@@H](CCCCN)C(=O)N[C@@H](CCCCN)C(=O)N[C@@H](CC(C)C)C(=O)N[C@@H](CC(C)C)C(=O)N[C@@H](CCCCN)C(=O)N[C@@H](CCCCN)C(=O)N[C@@H](CC(C)C)C(N)=O [pepD3H] (Hexanoyl-WKKLKKLLKKL-NH2) = 54.1%
CCCCCCCC(=O)N[C@@H](Cc1c[nH]c2ccccc12)C(=O)N[C@@H](CCCCN)C(=O)N[C@@H](CCCCN)C(=O)N[C@@H](CC(C)C)C(=O)N[C@@H](CCCCN)C(=O)N[C@@H](CCCCN)C(=O)N[C@@H](CC(C)C)C(=O)N[C@@H](CC(C)C)C(=O)N[C@@H](CCCCN)C(=O)N[C@@H](CCCCN)C(=O)N[C@@H](CC(C)C)C(N)=O [pepD3O] (Octanoyl-WKKLKKLLKKL-NH2) = 86%

Form: compound = CCCCCCCCCCCCCCCC(=O)N[C@@H](Cc1c[nH]c2ccccc12)C(=O)N[C@@H](CCCCN)C(=O)N[C@@H](CCCCN)C(=O)N[C@@H](CC(C)C)C(=O)N[C@@H](CCCCN)C(=O)N[C@@H](CCCCN)C(=O)N[C@@H](CC(C)C)C(=O)N[C@@H](CC(C)C)C(=O)N[C@@H](CCCCN)C(=O)N[C@@H](CCCCN)C(=O)N[C@@H](CC(C)C)C(=O)N[C@@H](CCCCN)C(=O)N[C@@H](CCCCN)C(=O)N[C@@H](CC(C)C)C(N)=O [pepD2P] (Palmitoyl-WKKLKKLLKKLKKL-NH2) ; hemolysis at 45 min, 256 μg/mL = 83.5%

hemolysis at 45 min, 256 μg/mL reported for this compound CCCCCCCCCCCCCCCCCC(=O)N[C@@H](Cc1c[nH]c2ccccc12)C(=O)N[C@@H](CCCCN)C(=O)N[C@@H](CCCCN)C(=O)N[C@@H](CC(C)C)C(=O)N[C@@H](CCCCN)C(=O)N[C@@H](CCCCN)C(=O)N[C@@H](CC(C)C)C(=O)N[C@@H](CC(C)C)C(=O)N[C@@H](CCCCN)C(=O)N[C@@H](CCCCN)C(=O)N[C@@H](CC(C)C)C(=O)N[C@@H](CCCCN)C(=O)N[C@@H](CCCCN)C(=O)N[C@@H](CC(C)C)C(N)=O [pepD2S] (Stearoyl-WKKLKKLLKKLKKL-NH2) : 60.7%

Measured hemolysis at 45 min, 256 μg/mL of CCCC(=O)N[C@@H](Cc1c[nH]c2ccccc12)C(=O)N[C@@H](CCCCN)C(=O)N[C@@H](CCCCN)C(=O)N[C@@H](CC(C)C)C(=O)N[C@@H](CCCCN)C(=O)N[C@@H](CCCCN)C(=O)N[C@@H](CC(C)C)C(=O)N[C@@H](CC(C)C)C(=O)N[C@@H](CCCCN)C(=O)N[C@@H](CCCCN)C(=O)N[C@@H](CC(C)C)C(N)=O [pepD3B] (Butyryl-WKKLKKLLKKL-NH2) : 7.89%

* * *

Some substances, each annotated with its measured hemolysis at 45 min, 256 μg/mL.
Assay: Hemolytic assay
Assay type: cell-based, rat
Conditions: rat
Give the value, in units of %, as a plain number.

hemolysis at 45 min, 256 μg/mL recorded for this substance, Ac-WKKVKKVVKKVKKV-NH2 [pepV2] , is 0.31

hemolysis at 45 min, 256 μg/mL reported for this substance Ac-WRRLRRLLRRLRRL-NH2 [pepR2] : 106

* * *

Experiment: in vitro
Assay type: in vitro ADME, rat
Conditions: rat, plasma, rat plasma, room temperature
Non-standard residues stand in square brackets, D forms with d. Residues, ends and D or L forms follow the SMILES beside them.
Recorded endpoint: half-life at 0.6 mg/mL (days)
Just the number in days, nothing appended.

Item: CC(=O)N[C@@H](Cc1c[nH]c2ccccc12)C(=O)N[C@H](CCCCN)C(=O)N[C@H](CCCCN)C(=O)N[C@H](CC(C)C)C(=O)N[C@H](CCCCN)C(=O)N[C@H](CCCCN)C(=O)N[C@H](CC(C)C)C(=O)N[C@H](CC(C)C)C(=O)N[C@H](CCCCN)C(=O)N[C@H](CCCCN)C(=O)N[C@H](CC(C)C)C(=O)N[C@H](CCCCN)C(=O)N[C@H](CCCCN)C(=O)N[C@H](CC(C)C)C(N)=O [pepdD2, Ac-Wkklkkllkklkkl-NH2] (Ac-W[dK][dK][dL][dK][dK][dL][dL][dK][dK][dL][dK][dK][dL]-NH2) | half-life at 0.6 mg/mL: 12.1

* * *

# maps each entry to its hemolysis at 45 min, 256 μg/mL
Assay: Hemolytic assay
Type: cell-based, rat
Settings: rat red blood cells, 256 μg/mL peptide, 37°C 45 min; read-out: Hemolysis (%) at 256 μg/mL
Give a bare numeral; the unit % is implied.

Ac-WKKIKKIIKKIKKI-NH2 [pepI2] = 0.27
Ac-WKKLKKLLKKLKKL-NH2 [pepD2] = 9.6

Entry Ac-WKKLKKLLKKL-NH2 [pepD3] ; hemolysis at 45 min, 256 μg/mL = 3.15
